procedure.summary: NCI Yeast Anticancer Drug Screen. Data for the cln2 rad14 strain (AID 165);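 also: 0% = growth equal to vehicle treated cultures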
cond: S. cerevisiae cln2 rad14 strain, at 50.0 µM
This is part of a sample that, as a whole, favours compounds with a hit. Of some 79,000 tested, about 15% had one in any assay. Active and inactive are the calls of the source. Rule as the data show it: active = growth inhibition above about 70%; inactive = the rest.
Classes used: True = active, False = inactive

compound	classification
C1Cc2c3c4c(c5c2C(C1)CCC5)CCCC4CCC3	False
O=NNc1nc(-c2ccccn2)nc2ccccc12	False
CCCCCCSc1nn(CCC#N)c(=O)[nH]c1=O	True
CCOc1ccc2c(ccc(/C=C\c3cc(C)c4cccnc4c3O)[n+]2C)c1	True
CC(C)(C)CC(C)(C)c1ccc(O)c(Cl)c1	False
CC(C)C(=O)[O][Bi]([c]1ccccc1)[c]1ccccc1	True
C1=CC2OC1c1cc3ccccc3cc12	True
COc1cc(C2=NCCO2)cc(OC)c1OC	False
COc1ccc(N=Nc2ccc3oc(=O)c(C(=O)Nc4ccc(OC)cc4)cc3c2)cc1	True
COC(=O)/C=N/O	False
O=C(c1ccccc1)c1ccc2c(c1)CCCC2	False
CS(=O)(=O)OCCN(CCOS(C)(=O)=O)c1ccc(C=Nc2cc(Cl)c(O)c(Cl)c2)c(Cl)c1	False
O=C1c2ccccc2C(=O)c2c1ccc(O)c2O.[Cu]	False
CCOC(=O)CCC(=O)Oc1ccc2c(c1OC(=O)CCC(=O)OCC)C(=O)c1ccccc1C2=O	False
Clc1ccc(OCCC(Cn2ccnc2)c2ccc(Cl)cc2Cl)c(Cl)c1 (stereo unspecified)	False
CC(=O)Oc1cccc2c(C(=O)CCl)ccnc12	True
CCC(=O)Oc1c(Br)c(Br)c(Br)c(Br)c1Br	False
Nc1ccc2c(c1)S(=O)(=O)c1cc(O)ccc1O2	False
C(=NCCc1ccccc1)c1ccccc1B1OB(c2ccccc2C=NCCc2ccccc2)OB(c2ccccc2C=NCCc2ccccc2)O1	True
N#CC=Cc1ccc([N+](=O)[O-])s1 (mixture of isomers)	True
C[N+]1(C)C/C(=C\C=C\c2ccccc2)C(=O)/C(=C/C=C/c2ccccc2)C1	True
CC(C)(C)C1CCC(SCCO)CC1 (stereo unspecified)	True
Nc1ccc2c(SCC(=O)Nc3ccccc3-c3ccccc3NC(=O)CSc3c4ccccc4nc4cc(N)ccc34)c3ccccc3nc2c1	True
COc1ccc2nc3cc(Cl)ccc3c(NCCC[N+](C)(C)CCCCCCCCCCCCCCCC[N+](C)(C)CCCNc3c4ccc(Cl)cc4nc4ccc(OC)cc34)c2c1	True
CC(=O)NC1=C(Sc2ccc(C)cc2)C(=O)c2ccccc2C1=O	False
O=C(C1=Cc2ccccc2OC1)N1CCN(c2cccc(Cl)c2)CC1	False
O=C(N/C(=C\c1ccc2c(c1)OCO2)c1nc2ccccc2s1)c1ccccc1	True
O=c1oc2c/c(=C\c3ccccc3)c(=O)c3cccc1c3-2	True
NC(Cc1nn[nH]n1)C(=O)O (stereo unspecified)	False
Cc1nc(C(N)=S)sc1C(=O)CC(=O)C(=O)Nc1nc2ccccc2[nH]1	False
C=C(CN(C)C)C(=O)c1ccc(Oc2ccccc2)cc1	True
Oc1c(Cl)c(Cl)c2ncccc2c1Cl	False
OC(CCN1CCCCC1)(Cc1ccccc1)c1cccc(Cl)c1 (stereo unspecified)	True
O=C1NC(=S)S/C1=C/c1ccc(/C=C2/SC(=S)NC2=O)cc1	False
CC(C)N=Cc1cc(I)cc(I)c1O.CC(C)N=Cc1cc(I)cc(I)c1O.[Co]	True
COc1ccc(N2C(=O)C(=O)N(c3ccccc3[N+](=O)[O-])C2=S)cc1	True
O/N=C1/C(=C/c2ccc3c(c2)OCO3)CCCC1C(NO)c1ccc2c(c1)OCO2 (stereo unspecified)	False
OCC1OC(NC(=S)NCSCCC(F)(F)C(F)(F)C(F)(F)C(F)(F)C(F)(F)C(F)(F)F)C(O)C(O)C1O (stereo unspecified)	False
CCOC(=O)C1CCC(=O)O1 (stereo unspecified)	False
O=C(Nc1ccccc1O)/C(Cl)=C/Cl	True
Fc1ccc(OCCC(Cn2ccnc2)c2ccc(Cl)cc2Cl)cc1 (stereo unspecified)	True
O=S(NCc1ccccc1)c1ccccc1 (stereo unspecified)	False
Cn1c2nc(-[n+]3ccc4ccccc4c3)nc-2c([O-])n(C)c1=O	False
CN(C)c1ncnc2c1ncn2C	False
CN(C)c1ccc(C(O)(Cc2cccnc2)c2ccc(N(C)C)cc2)cc1	False
CNC(=O)OCC1=CC(=O)C(OC)=C(OC)C1=O	False

====

procedure.summary: NCI Yeast Anticancer Drug Screen. Data for the sgs1 mgt1 strain (AID 161);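 also: 0% = growth of cultures given vehicle only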
cond: S. cerevisiae sgs1 mgt1 strain, at 5.0 µM (retest, dose inferred, filed as 0.5), hits give high values
The panel holds about 79,000 compounds, 15% with a hit somewhere; the sample as a whole holds those more often.
experimental.readout: growth inhibition (%)

molecule	result.unit	observed.result
CC(O)C(O)C(O)C(O)C(O)C(=O)O (stereo not given)	%	-1
NNC(=O)c1ccc(N)cc1O	%	-2
CC(C)=CCC(OC(=O)CC(C)C)C1=CC(=O)c2c(O)ccc(O)c2C1=O (stereo not given)	%	1
O=C(CC(=O)c1ccccc1)CC(=O)c1ccccc1Cl	%	-2
c1cc[c]([Sn]([S]c2cccc3cccnc23)([c]2ccccc2)[c]2ccccc2)cc1	%	100
CSCCC(NC(=O)C(CCSC)NS(=O)(=O)Cc1ccccc1)C(=O)O (stereo not given)	%	-6
Cn1c(=O)c2c(nnc(-c3ccccc3)[n+]2[O-])n(C)c1=O	%	1
CCOP(=O)(OCC)C(=C1C=C(C(C)(C)C)C(=O)C(C(C)(C)C)=C1)P(=O)(OCC)OCC	%	0
CCc1cc(-c2ccco2)c(C#N)c(=S)n1C1OC(COC(C)=O)C(OC(C)=O)C(OC(C)=O)C1OC(C)=O (stereo not given)	%	-1
COC12C(COC(N)=O)C3=C(C(=O)C(C)=C(N)C3=O)N1CC1C2N1C(=O)c1ccc(Cl)cc1 (stereo not given)	%	20

====

procedure.summary: NCI Yeast Anticancer Drug Screen. Data for the mec2-1 strain (AID 157)
cond: S. cerevisiae mec2-1 strain, at 50.0 µM (retest, dose inferred, filed as 5.0), hits give high values
This is part of a sample that, as a whole, favours compounds with a hit. Of some 79,000 tested, about 15% had one in any assay.
experimental.readout: growth inhibition (%)

compound	result.unit	observed.result
Fc1ccc(NC(=S)SCc2ccc(Cl)c(Cl)c2)cc1	%	91
CCC(C)(C)c1ccc(OC(=O)C(C)OC(C)=O)cc1 (configuration not stated)	%	48
O=S1(=O)CC2C1C1(Cl)OC2(Cl)c2ccccc21 (configuration not stated)	%	9
C1=c2ccccc2=C2C(=C(c3ccccc3)C(c3ccccc3)=NN2c2ccccc2)S1	%	-17
Cn1c(=O)nc2n(-c3ccc(Cl)cc3)c3cc(Cl)ccc3nc-2c1=O	%	9
O=C(NCCNCCNCCNC(=O)c1cc(-c2ccccc2)nc2ccccc12)c1cc(-c2ccccc2)nc2ccccc12	%	63
COc1cccc(NC(=S)NC2CC(C)CC(C)(C)C2)c1 (configuration not stated)	%	85
c1ccc2c(CCc3ccncc3)c[nH]c2c1	%	59
CC1=CC(=O)CC(c2ccccc2)C1 (configuration not stated)	%	99
COC(=O)c1ccc(C)cc1CC1Cc2cc(C)ccc2C1=O (configuration not stated)	%	56
C=CC(=O)Oc1ccccc1/C=C/C(=O)CCCCCC	%	98
Cc1cc(O)c(C(=O)/C=C/c2ccnc3ccccc23)c(=O)o1	%	-1
CC1(c2ccc(Cl)cc2)OC(=O)c2c1ccc1ccccc21 (configuration not stated)	%	53
CCC[N+]1=C(/C=C/c2cc(C)c3cccnc3c2O)C(C)(C)c2ccccc21	%	95
N#Cc1cc2c(cc1Cl)Sc1nccn1S2(=O)=O	%	52
COc1ccc2c(c1)CCC1OC(c3cccnc3)OC21 (configuration not stated)	%	-4
O=C1OCCN1/N=C/c1ccc([N+](=O)[O-])o1	%	30
O=C1c2ccc(O)c(O)c2C(=O)c2c(O)ccc(O)c21	%	95
O=S(=O)(CC(Br)c1ccccc1)CC(Br)c1ccccc1 (configuration not stated)	%	41
Cc1nn(C(=O)c2ccncc2)c(C)c1N=Nc1ccccc1[N+](=O)[O-]	%	93
O=C1C(Cl)=CC(=NCl)C=C1Cl	%	91
CCCCCCCCCCCC(=O)N(CCCCCCCCC)CC(O)C(O)C(OC1OC(CO)C(O)C(O)C1O)C(O)CO (configuration not stated)	%	95
Cc1c(C)c(NC(=O)/C=C/C(=O)O)c(C)c(C)c1NC(=O)/C=C\C(=O)O	%	37
O=C1CC(c2ccccc2)c2c(ccc3ccccc23)O1 (configuration not stated)	%	86
COc1ccc(C(=O)C(c2ccc(OC)cc2)C2(O)C(=O)Nc3c(C)cc(Cl)cc32)cc1 (configuration not stated)	%	-15
O=C(c1ccc(Br)cc1)C1N=NCC1c1ccccc1 (configuration not stated)	%	52
CCOc1nc(N)nc(C)c1N=Nc1ccc(Cl)cc1	%	58
CC(C)CCC(C)(C)c1cc(O)ccc1O	%	99
O=C(c1ccc(O)cc1)c1ccccc1O	%	23
COc1ccc(C)cc1NC(=O)ON=C1CCCCC1	%	88
N#CSc1ccc(O)cc1	%	97
O=C(O)c1ccc(C(O)(c2ccccc2)c2ccccc2)cc1	%	95
Brc1cccc[n+]1Cc1cc2ccccc2c2ccccc12	%	74
CC(=O)O[C@@H]1CC(C)C2CC2C2=C(C(O)OC2O)[C@@H]1C(C)CCC=C(C)C (some centres not stated)	%	99
COC1OC(CI)C(OC(c2ccccc2)(c2ccccc2)c2ccccc2)C(OC(c2ccccc2)(c2ccccc2)c2ccccc2)C1OC(c1ccccc1)(c1ccccc1)c1ccccc1 (configuration not stated)	%	-22
NC(Cc1ccnnc1)C(=O)O (configuration not stated)	%	-7
CC(C)(C)C1CCC(SCCO)CC1 (configuration not stated)	%	95
O=C(CNc1cccc(Cl)c1)Nn1c(-c2ccccc2)nc2ccccc2c1=O	%	69
Sc1ccccc1C1N(Cc2ccc(Cl)cc2)CCCN1Cc1ccc(Cl)cc1	%	69
CCOC(=O)/C=C(/Cl)C(=O)OCC	%	99
O=C(c1ccc(Cl)cc1)c1ccc([N+](=O)[O-])cc1	%	1
CCc1c(-c2ccccc2)c(CN2CCCCC2)c2ccccn12	%	13
CCCCOc1ccc(-c2c(COC(=O)NC)c(COC(=O)NC)c(C)n2C)cc1	%	97
c1ccc(-c2ccc(-c3ccc(C4=NCCN4)cc3)o2)cc1	%	79
N#CC(C(=O)CCc1nc2ccccc2[nH]1)c1c(Cl)cccc1Cl (configuration not stated)	%	12
CCOC(=O)C(Cc1ccc(O)c(C=O)c1)NC(C)=O (configuration not stated)	%	20
CC(=O)Sc1ccc(Br)cc1	%	52
